- Measured On: human GLP-2R (Homo sapiens)
- Construct: host or cells: COS-7
- Sequence (O95838 whole entry): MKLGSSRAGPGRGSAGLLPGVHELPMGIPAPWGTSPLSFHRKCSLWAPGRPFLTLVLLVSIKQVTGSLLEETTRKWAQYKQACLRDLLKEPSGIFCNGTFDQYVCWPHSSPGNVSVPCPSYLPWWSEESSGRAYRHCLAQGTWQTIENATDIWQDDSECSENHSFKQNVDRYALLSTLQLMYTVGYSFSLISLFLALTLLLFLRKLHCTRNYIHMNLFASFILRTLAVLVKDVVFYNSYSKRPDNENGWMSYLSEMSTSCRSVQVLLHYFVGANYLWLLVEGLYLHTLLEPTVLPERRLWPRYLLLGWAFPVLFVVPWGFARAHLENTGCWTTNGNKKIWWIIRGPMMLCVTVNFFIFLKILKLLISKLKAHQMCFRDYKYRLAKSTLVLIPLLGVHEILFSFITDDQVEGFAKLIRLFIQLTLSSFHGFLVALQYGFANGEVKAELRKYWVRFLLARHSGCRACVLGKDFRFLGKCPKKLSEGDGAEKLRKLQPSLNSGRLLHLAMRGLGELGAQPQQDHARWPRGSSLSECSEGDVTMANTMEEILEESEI
- Protocol Text: cAMP assay (HitHunter) in transiently transfected COS-7 cells expressing human GLP-2R
- Format: cell-based
- Test Parameters: COS-7; normalized to highest concentration of the endogenous ligand; read-out: Efficacy GLP-2R (Emax)
- Description: The next day the assay was initiated by washing with HEPES buffered saline (HBS) and followed by an incubation step with assay buffer (HBS added 1 mM isobutyl-1-methylxanthine (IBMX)) for 30 min at 37° C. […] The potencies (EC50 values) were determined by nonlinear regression using GraphPad Prism 9 (San Diego, California, USA). […] The efficacies (Emax values) were determined by normalization to the highest concentration applied of the endogenous ligand for each receptor.
*1 amine or outer side, *2 acyl side, *3 side chain or, on linkers, in order; H or OH if unused. Where no end group is shown, it is not given here. Side-chain parts run from the residue outwards. [ ]: non-standard residue; d: D form. The star is where a group is joined. C18 diacid = O=C(O)CCCCCCCCCCCCCCCCC(=O)*; γGlu = O=C(O)[C@H](CCC(=O)[*:2])N[*:1]; AEEA = NCCOCCOCC(=O)O; Aib = CC(C)(N)C(=O)O
Measurement Type: Emax (%)
Value expressed in %; do not type the unit.

Prompt line: Query (substance): HADGTFTSDYSIILDK([AEEA-AEEA-γGlu-C18 diacid])LAARDFINWLIQTKGKKNDWKHNITQ-OH [Compound 20] ; field requested: Emax
Response line: 100

Prompt line: Query (substance): HADGTFTSDYSTILDKLAARDFINWLIQTKGKK([AEEA-AEEA-γGlu-C18 diacid])NDWKHNITQ-OH [Compound 24] ; field requested: Emax
Response line: 91

Prompt line: Query (substance): HADGTFTSDYST[Aib]LDKLAARDFINWLIQTKGKKNDWKHNITQK([AEEA-AEEA-γGlu-C18 diacid])-OH [Compound 27] ; field requested: Emax
Response line: 85

Prompt line: Query (substance): HADGTFTSDYST[Aib]LDK([AEEA-AEEA-γGlu-C18 diacid])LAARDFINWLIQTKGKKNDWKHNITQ-OH [Compound 22] ; field requested: Emax
Response line: 93

Prompt line: Query (substance): H-HADGTFTSDYSTILDKLAARDFINWLIQTKGKKNDWK([AEEA-AEEA-γGlu-C18 diacid])HNITQ-OH [Compound 25] ; field requested: Emax
Response line: 117

Prompt line: Query (substance): HADGTFTSDYSTILDK([AEEA-AEEA-γGlu-C18 diacid])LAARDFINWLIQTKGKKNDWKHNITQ-OH [Compound 21] ; field requested: Emax
Response line: 104

Prompt line: Query (substance): HADGTFTSDYSTILDKLAARDFINWLIQTKGKKNDWKHNITQK([AEEA-AEEA-γGlu-C18 diacid])-OH [Compound 26] ; field requested: Emax
Response line: 112

###

I'd be grateful if you could share measured Emax for these entries.
- Measured On: human GLP-1R (Homo sapiens, UniProt P43220)
- Construct: host or cells: COS-7
- Sequence (P43220 24-463): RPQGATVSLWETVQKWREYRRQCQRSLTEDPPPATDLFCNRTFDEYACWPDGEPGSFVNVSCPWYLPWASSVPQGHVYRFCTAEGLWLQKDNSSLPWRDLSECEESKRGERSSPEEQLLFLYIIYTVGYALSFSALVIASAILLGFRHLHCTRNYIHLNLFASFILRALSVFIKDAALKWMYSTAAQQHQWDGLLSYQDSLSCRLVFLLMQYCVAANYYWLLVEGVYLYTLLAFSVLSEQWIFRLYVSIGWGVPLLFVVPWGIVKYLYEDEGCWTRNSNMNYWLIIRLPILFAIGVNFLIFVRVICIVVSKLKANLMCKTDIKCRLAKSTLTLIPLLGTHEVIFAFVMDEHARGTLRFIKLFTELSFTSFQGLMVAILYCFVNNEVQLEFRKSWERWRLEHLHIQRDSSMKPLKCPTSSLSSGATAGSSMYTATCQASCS
- Protocol Text: cAMP assay (HitHunter) in transiently transfected COS-7 cells expressing human GLP-1R
- Type: cell-based
- Test Parameters: COS-7; normalized to highest concentration of the endogenous ligand; read-out: Efficacy GLP-1R (Emax)
*1 amine or outer side, *2 acyl side, *3 side chain or, on linkers, in order; H or OH if unused. Where no end group is shown, it is not given here. Side-chain parts run from the residue outwards. [ ]: non-standard residue; d: D form. The star is where a group is joined. C18 diacid = O=C(O)CCCCCCCCCCCCCCCCC(=O)*; γGlu = O=C(O)[C@H](CCC(=O)[*:2])N[*:1]; AEEA = NCCOCCOCC(=O)O; Aib = CC(C)(N)C(=O)O
Value expressed in %; do not type the unit.

Prompt line: Query (substance): HADGTFTSDYST[Aib]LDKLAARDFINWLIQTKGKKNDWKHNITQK([AEEA-AEEA-γGlu-C18 diacid])-OH [Compound 27] ; field requested: Emax
Response line: 115

Prompt line: Query (substance): HADGTFTSDYSIILDK([AEEA-AEEA-γGlu-C18 diacid])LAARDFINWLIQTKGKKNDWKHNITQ-OH [Compound 20] ; field requested: Emax
Response line: 112

Prompt line: Query (substance): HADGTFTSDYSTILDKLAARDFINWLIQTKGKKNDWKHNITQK([AEEA-AEEA-γGlu-C18 diacid])-OH [Compound 26] ; field requested: Emax
Response line: 103

Prompt line: Query (substance): H-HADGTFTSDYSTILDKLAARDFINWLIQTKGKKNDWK([AEEA-AEEA-γGlu-C18 diacid])HNITQ-OH [Compound 25] ; field requested: Emax
Response line: 116

Prompt line: Query (substance): HADGTFTSDYSTILDK([AEEA-AEEA-γGlu-C18 diacid])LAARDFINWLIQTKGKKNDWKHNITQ-OH [Compound 21] ; field requested: Emax
Response line: 122

Prompt line: Query (substance): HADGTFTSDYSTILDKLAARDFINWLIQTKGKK([AEEA-AEEA-γGlu-C18 diacid])NDWKHNITQ-OH [Compound 24] ; field requested: Emax
Response line: 113

Prompt line: Query (substance): HADGTFTSDYST[Aib]LDK([AEEA-AEEA-γGlu-C18 diacid])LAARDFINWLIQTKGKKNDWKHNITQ-OH [Compound 22] ; field requested: Emax
Response line: 116
